Data credit: patent US20170334899A1

- System: human cervical tumor cell line HeLa (ATCC CCL-2)
- ASSAY: SAC-Formation - Nocodazole-Induced Assay
- Type: cell-based
- CONDITION_SET: Homo sapiens, HeLa, 24 h, HeLa cells, nocodazole 0.1 μg/ml together with test compound, decrease of mitotic cells (phospho-histone H3 Ser10)
Below, each entry is listed with its recorded IC50.
Use nM as the unit, but write only the number.

Known results for molecules:
>>> value_measured("CCN1CC[C@H](Oc2ccc(NC(=O)c3c(C)nsc3Nc3cnc(C(F)(F)F)cn3)cn2)[C@@H](F)C1 [Example 365]")
34
>>> value_measured("Cc1nsc(Nc2cnc3ccccc3n2)c1C(=O)Nc1cccc(NC(=O)C(C)(C)C)c1 [Example 186]")
630
>>> value_measured("Cc1nsc(Nc2cnc(C(F)(F)F)cn2)c1C(=O)Nc1ccc(F)c(OCC2CCN(CCF)CC2)c1 [Example 309]")
130

Attention now turns to another entry.
Please report the recorded IC50 for CNS(=O)(=O)c1ccc(NC(=O)c2c(C)nsc2Nc2cc(C#N)ccn2)cc1 [Example 210] .
3200
